- TEST_SYSTEM: DRB1*0101 (Homo sapiens, UniProt P01903+P01911, A100R/D57E/F55L/F60I/F76Y/I96L/L162R/M171V/P40L/Q125E/R42F/V115G/Y59C)
- METHOD: biochemical
pIC50: −log10 of the molar value.
Label Y when pIC50 is at or above 8; otherwise label N.

Some solved entries appear below for comparison.
SUBSTANCE_SMILES	CATEGORY_LABEL
CSCC[C@H](NC(=O)[C@@H](NC(=O)[C@H](Cc1ccccc1)NC(=O)[C@H](CCCNC(=N)N)NC(=O)[C@H](CC(N)=O)NC(=O)[C@H](CC(C)C)NC(=O)[C@H](CC(C)C)NC(=O)[C@H](CC(C)C)NC(=O)[C@H](CCCNC(=N)N)NC(=O)[C@H](CO)NC(=O)[C@@H](NC(=O)[C@@H](N)CCSC)C(C)C)[C@@H](C)O)C(=O)N[C@H](C(=O)N[C@@H](Cc1c[nH]cn1)C(=O)N[C@@H](CCCNC(=N)N)C(=O)N[C@@H](CCCNC(=N)N)C(=O)O)[C@@H](C)O	N
CC(C)C[C@H](NC(=O)[C@H](C)NC(=O)[C@H](CC(C)C)NC(=O)[C@@H]1CCCN1)C(=O)N[C@@H](CCCCN)C(=O)N[C@@H](CCC(=O)O)C(=O)N[C@@H](Cc1ccccc1)C(=O)N[C@@H](CCCCN)C(=O)N[C@@H](CC(=O)O)C(=O)N[C@@H](Cc1ccccc1)C(=O)N[C@@H](C)C(=O)N[C@@H](C)C(=O)NCC(=O)N[C@@H](CCCNC(=N)N)C(=O)N[C@@H](CCCCN)C(=O)O	N
CC[C@H](C)[C@H](NC(=O)[C@H](C)NC(=O)[C@H](CC(N)=O)NC(=O)[C@H](C)NC(=O)[C@H](CC(C)C)NC(=O)[C@H](CCC(N)=O)NC(=O)[C@H](CCCNC(=N)N)NC(=O)[C@H](Cc1c[nH]cn1)NC(=O)[C@H](CCC(=O)O)NC(=O)[C@@H]1CCCN1)C(=O)N[C@@H](Cc1ccccc1)C(=O)N[C@@H](CCCCN)C(=O)N[C@@H](CC(C)C)C(=O)N[C@H](C(=O)N[C@@H](Cc1ccc(O)cc1)C(=O)N[C@@H](CCC(N)=O)C(=O)N[C@@H](CC(N)=O)C(=O)O)[C@@H](C)O	N
CC[C@H](C)[C@H](NC(=O)[C@H](CC(N)=O)NC(=O)CNC(=O)[C@@H](NC(=O)CNC(=O)[C@H](CC(N)=O)NC(=O)[C@@H](N)CO)[C@@H](C)O)C(=O)N[C@H](C(=O)N[C@@H](CO)C(=O)N[C@@H](CO)C(=O)N[C@H](C(=O)N[C@@H](CC(N)=O)C(=O)N[C@@H](CCSC)C(=O)N[C@H](C(=O)N[C@@H](CO)C(=O)N[C@@H](CCCNC(=N)N)C(=O)N[C@@H](CC(C)C)C(=O)O)C(C)C)C(C)C)C(C)C	Y

Shifting focus to the molecule that follows.
Problem: Please indicate if the recorded pIC50 for CC[C@H](C)[C@H](NC(=O)[C@H](CC(C)C)NC(=O)[C@H](CCCNC(=N)N)NC(=O)CNC(=O)[C@@H](N)CC(N)=O)C(=O)N[C@H](C(=O)N[C@@H](C)C(=O)N[C@@H](CC(N)=O)C(=O)N1CCC[C@H]1C(=O)N[C@H](C(=O)N[C@H](C(=O)N[C@H](C(=O)N[C@@H](CCCCN)C(=O)N[C@@H](CCCCN)C(=O)N[C@@H](CCC(=O)O)C(=O)O)[C@@H](C)O)C(C)C)C(C)C)[C@@H](C)O meets or exceeds 8.
Result: Y

----------
- TEST_SYSTEM: DRB5*0101 (Homo sapiens, UniProt P01903+Q30154)
- METHOD: biochemical
Listing: IC50 of selected compounds
Write down the numeric answer in nM and omit the unit.

COMPOUND	READOUT_LABEL	QUANTITATIVE_RESULT
CC[C@H](C)[C@H](NC(=O)[C@H](CC(C)C)NC(=O)[C@H](CCC(=O)O)NC(=O)[C@H](Cc1c[nH]cn1)NC(=O)[C@H](Cc1ccccc1)NC(=O)[C@H](Cc1c[nH]cn1)NC(=O)[C@H](Cc1c[nH]cn1)NC(=O)[C@H](CO)NC(=O)[C@H](CS)NC(=O)[C@H](Cc1ccccc1)NC(=O)[C@@H]1CCCN1C(=O)[C@@H](NC(=O)[C@H](CCC(N)=O)NC(=O)[C@H](CCC(N)=O)NC(=O)[C@H](Cc1c[nH]c2ccccc12)NC(=O)[C@@H](N)CC(=O)O)C(C)C)C(=O)N[C@@H](CCSC)C(=O)O [NS5 702-718]	IC50	3220

Entry CC[C@H](C)[C@H](NC(=O)[C@H](CS)NC(=O)[C@H](Cc1ccccc1)NC(=O)[C@H](CCC(N)=O)NC(=O)[C@@H](N)CC(N)=O)C(=O)N[C@@H](CCCCN)C(=O)N[C@H](C(=O)N[C@@H](CC(C)C)C(=O)N[C@@H](CC(N)=O)C(=O)N1CCC[C@H]1C(=O)N[C@@H](Cc1ccc(O)cc1)C(=O)N[C@@H](CCSC)C(=O)N1CCC[C@H]1C(=O)N[C@H](C(=O)N[C@H](C(=O)N[C@H](C(=O)N[C@@H](CCC(=O)O)C(=O)O)[C@@H](C)CC)C(C)C)[C@@H](C)O)C(C)C [NS5 175-191] , IC50 reported as 722

----------
- TEST_SYSTEM: DRB5*0101 (Homo sapiens, UniProt P01903+Q30154)
- METHOD: biochemical
READOUT_LABEL: IC50 (nM)
// return numeric value only (unit: nM, not printed)

SUBSTANCE_SMILES	QUANTITATIVE_RESULT
CC[C@H](C)[C@H](NC(=O)[C@H](Cc1ccc(O)cc1)NC(=O)CNC(=O)[C@H](CC(C)C)NC(=O)[C@H](CCCCN)NC(=O)[C@H](Cc1c[nH]cn1)NC(=O)[C@@H](N)CC(C)C)C(=O)N[C@@H](CC(C)C)C(=O)N[C@@H](CCCNC(=N)N)C(=O)N[C@@H](CC(=O)O)C(=O)N[C@H](C(=O)N[C@@H](CO)C(=O)N[C@@H](CCCCN)C(=O)N[C@H](C(=O)N1CCC[C@H]1C(=O)NCC(=O)NCC(=O)O)[C@@H](C)CC)[C@@H](C)CC	611

// next entry
Looking up CC[C@H](C)[C@H](N)C(=O)N[C@H](C(=O)N[C@H](C(=O)NCC(=O)N[C@H](C(=O)NCC(=O)N[C@@H](CC(=O)O)C(=O)N[C@@H](CC(N)=O)C(=O)N[C@@H](C)C(=O)N[C@@H](CC(C)C)C(=O)N[C@@H](CCCCN)C(=O)N[C@H](C(=O)N[C@@H](CC(N)=O)C(=O)N[C@@H](Cc1c[nH]c2ccccc12)C(=O)N[C@@H](Cc1ccc(O)cc1)C(=O)O)[C@@H](C)CC)[C@@H](C)CC)[C@@H](C)CC)C(C)C , I see its IC50 listed as 1250

----------
- TEST_SYSTEM: DRB5*0101 (Homo sapiens, UniProt P01903+Q30154)
- METHOD: biochemical
Catalogue of compounds with associated IC50
Entry rule: numbers only, all in nM.

SUBSTANCE_SMILES	QUANTITATIVE_RESULT
CC[C@H](C)[C@H](NC(=O)[C@@H](N)C(C)C)C(=O)N[C@@H](CC(C)C)C(=O)N[C@H](C(=O)N[C@@H](CC(=O)O)C(=O)NCC(=O)N1CCC[C@H]1C(=O)N[C@@H](CCC(=O)O)C(=O)N[C@@H](CCCNC(=N)N)C(=O)N[C@H](C(=O)N[C@H](C(=O)N[C@@H](CC(C)C)C(=O)N[C@@H](C)C(=O)NCC(=O)N1CCC[C@H]1C(=O)O)[C@@H](C)CC)C(C)C)[C@@H](C)O	8290
CC[C@H](C)[C@H](NC(=O)[C@H](C)NC(=O)[C@H](C)NC(=O)[C@H](C)NC(=O)[C@@H](N)CCC(=O)O)C(=O)N[C@@H](Cc1ccccc1)C(=O)N[C@@H](CCSC)C(=O)N[C@H](C(=O)N[C@@H](C)C(=O)N[C@H](C(=O)N1CCC[C@H]1C(=O)N1CCC[C@H]1C(=O)NCC(=O)N[C@H](C(=O)N[C@@H](C)C(=O)O)[C@@H](C)O)[C@@H](C)O)[C@@H](C)O	2520
CSCC[C@H](NC(=O)CNC(=O)[C@H](CCCCN)NC(=O)[C@H](CC(C)C)NC(=O)[C@H](CCC(=O)O)NC(=O)[C@H](CC(C)C)NC(=O)[C@H](CCCCN)NC(=O)[C@H](CC(=O)O)NC(=O)[C@H](CCSC)NC(=O)[C@H](CCCCN)NC(=O)[C@H](CC(C)C)NC(=O)[C@H](CCCNC(=N)N)NC(=O)[C@H](CS)NC(=O)[C@H](CCCCN)NC(=O)[C@@H](N)CC(C)C)C(=O)O	2500
CC(C)[C@H](NC(=O)[C@H](CCC(=O)O)NC(=O)[C@H](Cc1ccc(O)cc1)NC(=O)[C@H](CO)NC(=O)CNC(=O)[C@H](Cc1c[nH]cn1)NC(=O)[C@H](Cc1ccc(O)cc1)NC(=O)[C@H](C)NC(=O)[C@H](Cc1c[nH]c2ccccc12)NC(=O)[C@@H](N)[C@@H](C)O)C(=O)N[C@@H](CCCCN)C(=O)N[C@@H](C)C(=O)N[C@H](C(=O)NCC(=O)N[C@@H](CO)C(=O)N[C@@H](C)C(=O)O)[C@@H](C)O	1830

Please find the next compound below.
The value of IC50 measured for the compound CC[C@H](C)[C@H](NC(=O)[C@H](CC(C)C)NC(=O)[C@H](CC(N)=O)NC(=O)[C@H](Cc1ccc(O)cc1)NC(=O)[C@H](CC(N)=O)NC(=O)[C@@H]1CCCN1)C(=O)N[C@H](C(=O)N[C@@H](CCSC)C(=O)N[C@@H](CC(=O)O)C(=O)N[C@@H](CCC(=O)O)C(=O)N[C@@H](C)C(=O)N[C@@H](Cc1c[nH]cn1)C(=O)N[C@@H](Cc1ccccc1)C(=O)N[C@H](C(=O)N[C@@H](CC(=O)O)C(=O)O)[C@@H](C)O)[C@@H](C)CC turned out to be 7130
